Data origin: ChEMBL document CHEMBL2203257

STUDY TARGET: Calcium/calmodulin-dependent protein kinase kinase 1 (Homo sapiens, UniProt Q8N5S9)
Sequence (Q8N5S9 whole entry): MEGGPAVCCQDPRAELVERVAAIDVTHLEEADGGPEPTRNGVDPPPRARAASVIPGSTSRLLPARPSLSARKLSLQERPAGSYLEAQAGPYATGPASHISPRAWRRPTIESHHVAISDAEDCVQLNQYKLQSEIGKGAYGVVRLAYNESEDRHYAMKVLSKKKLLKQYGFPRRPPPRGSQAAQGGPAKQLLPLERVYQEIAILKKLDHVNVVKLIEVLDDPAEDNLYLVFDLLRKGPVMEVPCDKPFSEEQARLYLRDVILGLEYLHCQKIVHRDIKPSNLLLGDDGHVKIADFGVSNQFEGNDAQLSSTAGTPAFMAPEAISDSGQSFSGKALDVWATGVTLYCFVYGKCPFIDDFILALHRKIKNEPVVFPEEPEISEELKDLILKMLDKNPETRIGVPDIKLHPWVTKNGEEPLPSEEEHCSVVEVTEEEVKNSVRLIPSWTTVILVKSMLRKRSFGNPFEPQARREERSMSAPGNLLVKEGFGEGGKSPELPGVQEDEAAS
ASSAY NOTES: Inhibition of CAMKK1
RECORDED METRIC: IC50

[
  {
    "LINE NOTATION": "CC(C)(C)NS(=O)(=O)c1cncc(-c2ccn3nc(N)nc3c2)c1",
    "RECORDED METRIC": "IC50",
    "RESULT": "> 10 µM"
  }
]

====

STUDY TARGET: Phosphatidylinositol 4,5-bisphosphate 3-kinase catalytic subunit beta isoform (Homo sapiens)
Sequence (P42338 whole entry, canonical isoform): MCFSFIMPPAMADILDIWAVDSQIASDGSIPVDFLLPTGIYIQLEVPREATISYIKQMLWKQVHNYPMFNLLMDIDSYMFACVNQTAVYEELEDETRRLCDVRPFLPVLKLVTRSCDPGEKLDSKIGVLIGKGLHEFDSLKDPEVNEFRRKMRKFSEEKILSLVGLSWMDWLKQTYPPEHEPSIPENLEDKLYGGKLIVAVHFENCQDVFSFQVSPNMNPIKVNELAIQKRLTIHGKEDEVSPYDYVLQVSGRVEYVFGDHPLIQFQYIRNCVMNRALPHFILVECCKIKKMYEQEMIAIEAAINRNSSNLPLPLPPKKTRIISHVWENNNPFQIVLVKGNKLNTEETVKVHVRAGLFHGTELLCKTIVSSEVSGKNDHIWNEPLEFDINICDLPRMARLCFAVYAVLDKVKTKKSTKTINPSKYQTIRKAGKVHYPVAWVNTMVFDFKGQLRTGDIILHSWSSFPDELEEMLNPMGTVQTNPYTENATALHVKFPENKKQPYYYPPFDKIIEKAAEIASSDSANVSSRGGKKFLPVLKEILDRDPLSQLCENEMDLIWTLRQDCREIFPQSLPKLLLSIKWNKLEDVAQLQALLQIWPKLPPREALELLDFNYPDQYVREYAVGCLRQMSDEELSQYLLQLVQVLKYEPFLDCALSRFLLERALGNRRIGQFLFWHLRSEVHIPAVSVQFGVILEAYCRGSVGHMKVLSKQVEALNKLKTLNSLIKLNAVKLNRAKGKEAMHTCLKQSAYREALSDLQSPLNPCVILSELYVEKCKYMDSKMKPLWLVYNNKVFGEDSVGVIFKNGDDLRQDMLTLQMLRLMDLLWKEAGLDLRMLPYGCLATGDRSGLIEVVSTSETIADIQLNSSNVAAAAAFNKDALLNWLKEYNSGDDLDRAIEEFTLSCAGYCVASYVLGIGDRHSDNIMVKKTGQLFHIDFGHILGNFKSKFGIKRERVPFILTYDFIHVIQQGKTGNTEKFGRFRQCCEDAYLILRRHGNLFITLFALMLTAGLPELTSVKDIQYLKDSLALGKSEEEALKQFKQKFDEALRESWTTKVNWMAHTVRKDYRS
ASSAY NOTES: Inhibition of PI3Kbeta assessed as change in pIC50 by kinobeads assay
pIC50: −log10 of the molar value.
RECORDED METRIC: pIC50

[
  {
    "LINE NOTATION": "CC(C)(C)NS(=O)(=O)c1cncc(-c2cc(F)c3nc(N)nn3c2)c1",
    "RECORDED METRIC": "pIC50",
    "NUMBER": 6.00
  }
]
